These measurements were taken from ChEMBL document CHEMBL3393040.

target: UniProt:P56817; assay: Inhibition of human recombinant BACE1 pre-incubated with enzyme for 60 mins before fluorescent substrate addition FRET method
Sequence (P56817 whole entry): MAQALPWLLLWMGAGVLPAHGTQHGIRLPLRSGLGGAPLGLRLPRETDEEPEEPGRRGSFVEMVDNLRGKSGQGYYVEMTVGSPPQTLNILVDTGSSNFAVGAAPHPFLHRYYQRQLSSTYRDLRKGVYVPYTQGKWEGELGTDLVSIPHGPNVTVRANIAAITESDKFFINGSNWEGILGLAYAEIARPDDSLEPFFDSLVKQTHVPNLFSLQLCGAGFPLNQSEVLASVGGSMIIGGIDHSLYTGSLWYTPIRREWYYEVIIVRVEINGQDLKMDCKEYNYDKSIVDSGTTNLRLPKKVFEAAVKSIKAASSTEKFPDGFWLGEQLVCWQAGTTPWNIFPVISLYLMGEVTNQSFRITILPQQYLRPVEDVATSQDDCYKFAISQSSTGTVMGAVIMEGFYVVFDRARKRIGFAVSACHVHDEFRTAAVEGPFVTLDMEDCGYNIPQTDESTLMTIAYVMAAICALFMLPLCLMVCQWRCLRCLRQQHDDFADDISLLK
measured.metric: pIC50
The scale used: pIC50 is minus the common logarithm of the concentration in molar units.

# pIC50 lookup, item Cc1cc(-c2cc3c(c(F)n2)Oc2ccc(-c4cccnc4F)cc2[C@@]32COC(N)=N2)on1
9.52

Try this compound too: NC1=N[C@@]2(CO1)c1cc(-c3cccnc3F)ccc1Oc1c2cc(-c2ccnc(F)c2)nc1F
9.40

Try this compound too: NC1=N[C@@]2(CO1)c1cc(-c3cccnc3F)ccc1Oc1c2cc(-c2ccccc2)nc1F
9.15

Try this compound too: NC1=N[C@@]2(CO1)c1cc(-c3ncccc3F)ccc1Oc1c2cc(C2=CCCOC2)nc1F
9.52

Try this compound too: NC1=N[C@@]2(CO1)c1cc(-c3cccnc3F)ccc1Oc1c2cc(C2=CCOCC2)nc1F
9.52

Try this compound too: NC1=N[C@@]2(CO1)c1cc(-c3cccnc3F)ccc1Oc1c2cc(N2CC[C@@H](F)C2)nc1F
9.70
